Please provide measured IC50 ratio (WT IC50/mutant IC50) for the entries that follow.
Target or test system: human CCR8 (human) (UniProt P51685)
Sequence (P51685 whole entry): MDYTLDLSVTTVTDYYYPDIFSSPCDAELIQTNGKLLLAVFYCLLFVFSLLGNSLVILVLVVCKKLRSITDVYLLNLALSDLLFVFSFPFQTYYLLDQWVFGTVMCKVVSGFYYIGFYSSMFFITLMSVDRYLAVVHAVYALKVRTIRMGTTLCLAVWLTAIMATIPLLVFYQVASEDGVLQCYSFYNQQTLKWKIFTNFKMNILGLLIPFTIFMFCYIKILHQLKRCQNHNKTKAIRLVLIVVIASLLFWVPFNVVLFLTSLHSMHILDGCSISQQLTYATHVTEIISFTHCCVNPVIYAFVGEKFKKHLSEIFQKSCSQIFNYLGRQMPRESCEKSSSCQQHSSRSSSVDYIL
Protocol details: cell-based or functional assay

h10A11 IGKV4-1/IGHV3-73 Y55F (antibody, name in Kabat numbering, V domains shown) VH: EVQLVESGGGLVQPGGSLKLSCAASGFAFNTYALYWVRQASGKGLEWVGRIRSKSNNFATYYADSVKDRFTISRDDSKNTAYLQMNSLKTEDTAVYYCTRARFYYSDYGYAMDYWGQGTLVTVSS VL: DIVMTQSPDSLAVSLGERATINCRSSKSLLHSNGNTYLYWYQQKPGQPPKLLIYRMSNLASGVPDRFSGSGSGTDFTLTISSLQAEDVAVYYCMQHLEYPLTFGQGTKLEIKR has a reported IC50 ratio (WT IC50/mutant IC50) of 0.47

Just so you know, measured IC50 ratio (WT IC50/mutant IC50) for h10A11 IGKV4-1/IGHV3-73 Y102F (antibody, name in Kabat numbering, V domains shown) VH: EVQLVESGGGLVQPGGSLKLSCAASGFAFNTYALYWVRQASGKGLEWVGRIRSKSNNYATYYADSVKDRFTISRDDSKNTAYLQMNSLKTEDTAVYYCTRARFYYSDYGYAMDFWGQGTLVTVSS VL: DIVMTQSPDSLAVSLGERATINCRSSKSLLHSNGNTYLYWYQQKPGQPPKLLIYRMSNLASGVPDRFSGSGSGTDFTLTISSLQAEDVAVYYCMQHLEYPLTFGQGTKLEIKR came out at 0.99

Reported IC50 ratio (WT IC50/mutant IC50) ( h10A11 IGKV4-1/IGHV3-73 D65E (antibody, name in Kabat numbering, V domains shown) VH: EVQLVESGGGLVQPGGSLKLSCAASGFAFNTYALYWVRQASGKGLEWVGRIRSKSNNYATYYADSVKERFTISRDDSKNTAYLQMNSLKTEDTAVYYCTRARFYYSDYGYAMDYWGQGTLVTVSS VL: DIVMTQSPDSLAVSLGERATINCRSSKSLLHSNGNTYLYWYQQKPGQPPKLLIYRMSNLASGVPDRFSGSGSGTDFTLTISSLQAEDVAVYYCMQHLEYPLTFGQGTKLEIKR ) = 1.3

Record h10A11 IGKV4-1/IGHV3-73 Y99F (antibody, name in Kabat numbering, V domains shown) VH: EVQLVESGGGLVQPGGSLKLSCAASGFAFNTYALYWVRQASGKGLEWVGRIRSKSNNYATYYADSVKDRFTISRDDSKNTAYLQMNSLKTEDTAVYYCTRARFYFSDYGYAMDYWGQGTLVTVSS VL: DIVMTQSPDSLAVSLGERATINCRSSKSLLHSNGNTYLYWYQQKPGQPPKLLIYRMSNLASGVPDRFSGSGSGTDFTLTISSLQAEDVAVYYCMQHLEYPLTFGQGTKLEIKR . Reported IC50 ratio (WT IC50/mutant IC50): 0.8

Consider h10A11 IGKV4-1/IGHV3-73 R50K (antibody, name in Kabat numbering, V domains shown) VH: EVQLVESGGGLVQPGGSLKLSCAASGFAFNTYALYWVRQASGKGLEWVGKIRSKSNNYATYYADSVKDRFTISRDDSKNTAYLQMNSLKTEDTAVYYCTRARFYYSDYGYAMDYWGQGTLVTVSS VL: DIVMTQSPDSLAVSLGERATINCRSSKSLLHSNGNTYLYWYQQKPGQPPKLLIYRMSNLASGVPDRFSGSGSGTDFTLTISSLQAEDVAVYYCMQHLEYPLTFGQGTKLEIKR . Its measured IC50 ratio (WT IC50/mutant IC50) is 0.12

Item: h10A11 IGKV4-1/IGHV3-73 D61E (antibody, name in Kabat numbering, V domains shown) VH: EVQLVESGGGLVQPGGSLKLSCAASGFAFNTYALYWVRQASGKGLEWVGRIRSKSNNYATYYAESVKDRFTISRDDSKNTAYLQMNSLKTEDTAVYYCTRARFYYSDYGYAMDYWGQGTLVTVSS VL: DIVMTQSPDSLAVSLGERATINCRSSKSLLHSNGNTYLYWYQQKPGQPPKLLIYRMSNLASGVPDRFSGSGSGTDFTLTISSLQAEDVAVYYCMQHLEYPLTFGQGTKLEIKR | IC50 ratio (WT IC50/mutant IC50): 0.25

The binder h10A11 IGKV4-1/IGHV3-73 T57S (antibody, name in Kabat numbering, V domains shown) VH: EVQLVESGGGLVQPGGSLKLSCAASGFAFNTYALYWVRQASGKGLEWVGRIRSKSNNYASYYADSVKDRFTISRDDSKNTAYLQMNSLKTEDTAVYYCTRARFYYSDYGYAMDYWGQGTLVTVSS VL: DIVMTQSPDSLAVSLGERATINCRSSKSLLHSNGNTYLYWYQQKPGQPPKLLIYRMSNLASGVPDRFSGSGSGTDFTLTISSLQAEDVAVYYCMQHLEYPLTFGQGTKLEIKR showed IC50 ratio (WT IC50/mutant IC50) equal to 0.49

// field: IC50 ratio (WT IC50/mutant IC50); key: h10A11 IGKV4-1/IGHV3-73 A56V (antibody, name in Kabat numbering, V domains shown) VH: EVQLVESGGGLVQPGGSLKLSCAASGFAFNTYALYWVRQASGKGLEWVGRIRSKSNNYVTYYADSVKDRFTISRDDSKNTAYLQMNSLKTEDTAVYYCTRARFYYSDYGYAMDYWGQGTLVTVSS VL: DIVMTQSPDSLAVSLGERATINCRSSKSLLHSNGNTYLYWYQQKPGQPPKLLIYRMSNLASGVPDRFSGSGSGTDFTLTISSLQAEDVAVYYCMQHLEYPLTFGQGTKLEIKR ; value = 0.55

Summary for this binder, h10A11 IGKV4-1/IGHV3-73 K64R (antibody, name in Kabat numbering, V domains shown) VH: EVQLVESGGGLVQPGGSLKLSCAASGFAFNTYALYWVRQASGKGLEWVGRIRSKSNNYATYYADSVRDRFTISRDDSKNTAYLQMNSLKTEDTAVYYCTRARFYYSDYGYAMDYWGQGTLVTVSS VL: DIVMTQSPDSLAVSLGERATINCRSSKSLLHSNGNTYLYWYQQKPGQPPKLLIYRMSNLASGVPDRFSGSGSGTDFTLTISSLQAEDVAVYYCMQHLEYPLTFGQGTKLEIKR : IC50 ratio (WT IC50/mutant IC50) is 0.54

Lab note: h10A11 IGKV4-1/IGHV3-73 K52bR (antibody, name in Kabat numbering, V domains shown) VH: EVQLVESGGGLVQPGGSLKLSCAASGFAFNTYALYWVRQASGKGLEWVGRIRSRSNNYATYYADSVKDRFTISRDDSKNTAYLQMNSLKTEDTAVYYCTRARFYYSDYGYAMDYWGQGTLVTVSS VL: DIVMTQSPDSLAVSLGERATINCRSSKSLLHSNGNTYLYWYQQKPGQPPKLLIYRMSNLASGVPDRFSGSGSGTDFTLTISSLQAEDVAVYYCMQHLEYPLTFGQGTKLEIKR gave IC50 ratio (WT IC50/mutant IC50) of 0.47
